# literature pull: human GST-DYRK1A (Homo sapiens) IC50

>>> print(df.to_string())
                                   molecule   measuredvalue
0  COc1cc(P2(=O)CCN(C3CC3)CC2)ccc1Nc1nc(N[C@H]2CCOC2)c2c(C(F)(F)F)c[nH]c2n1  301 to 1000 nM
1  CC#CC1CNC(=O)N1c1nc2c3c(ccc2s1)OCCO3 (single isomer, unassigned)       ≥ 1000 nM

For each of the items listed, what is its IC50?
1. COc1cc(S(C)(=O)=O)ccc1Nc1nc(NC2CCCCC2)c2c(C#N)c[nH]c2n1
2. Oc1cc2nc(-c3ccc(O)c(O)c3O)sc2cc1O
3. N[C@H]1CCCN(c2ccnc3ccc(-c4c[nH]c5ncccc45)cc23)C1
4. CCNc1cc(Nc2ccc(C(=O)N3CCOCC3)c3c2OCC3)nc2[nH]cc(C(F)(F)F)c12
5. COCCNc1nc(Nc2ccc(C(=O)N3CCC(N4CCOCC4)CC3)c3c2OCCO3)nc2[nH]cc(C(F)(F)F)c12
6. C[C@]12O[C@H]([C@H](O)[C@H](O)[C@H]1O)n1c3ccccc3c3c4c(c5c6ccccc6n2c5c31)C(=O)NC4=O

Solution:
1: 301 to 1000 nM; 2: 95 nM; 3: < 10 nM; 4: < 100 nM; 5: < 100 nM; 6: 4 nM

For each of the items listed, what is its IC50?
1. O=C(c1ccc(Nc2nc(NCC3CC3)c3c(C(F)(F)F)c[nH]c3n2)c2c1CCO2)N1CCOCC1
2. CCNc1cc(Nc2ccc(C(=O)N3CCC(N4CCN(C)CC4)CC3)c3c2OCC3)nc2[nH]cc(C(F)(F)F)c12
3. CCNc1nc(Nc2ccc(C(=O)N3CCC(N4CCOCC4)CC3)c3c2OCCO3)nc2[nH]cc(C#N)c12
4. COCCNc1cc(Nc2ccc(C(=O)N3CCC(N4CCOCC4)CC3)c3c2OCCO3)nc2[nH]cc(C#N)c12
5. CC#CC1CNC(=O)N1c1nc2c3c(ccc2s1)OCCN3CCN1CCCCC1 (racemic)
6. CCNc1cc(Nc2ccc(P3(=O)CCN(C4COC4)CC3)cc2OC)nc2[nH]cc(C(F)(F)F)c12
7. O=C(c1ccc(Nc2nc(NCC3CCCC3)c3c(C(F)(F)F)c[nH]c3n2)c2c1CCO2)N1CCC(N2CCOCC2)CC1
8. CNc1nc(Nc2ccc(S(=O)(=O)N3CCC(N4CCOCC4)CC3)cc2OC)nc2[nH]cc(C#N)c12

Solution:
1. 301 to 1000 nM
2. < 100 nM
3. 301 to 1000 nM
4. 301 to 1000 nM
5. 100 to 1000 nM
6. 101 to 300 nM
7. 301 to 1000 nM
8. 301 to 1000 nM

For each of the items listed, what is its IC50?
1. Cc1n[nH]c2ncc(-c3cncc(N4CCCC4=O)n3)cc12
2. COc1cc(P(C)(C)=O)ccc1Nc1nc(NC2CC2)c2c(C#N)c[nH]c2n1
3. O=C(c1ccc(Nc2nc(NC3CCCCC3)c3cc[nH]c3n2)c2c1CCO2)N1CCC(N2CCOCC2)CC1
4. O=C(c1ccc(Nc2nc(NC3CCCCC3)c3cc[nH]c3n2)c2c1CCO2)N1CCOCC1
5. CCc1cnn2c(NCc3ccc(-c4ccccn4)cc3)nc(N[C@H](CC)CO)nc12
6. COc1cc(S(C)(=O)=O)ccc1Nc1nc(N[C@@H]2CCOC2)c2cc[nH]c2n1
7. CC#C[C@H]1[C@H](CF)NC(=O)N1c1nc2c3c(ccc2s1)OCC3 (single isomer, unassigned)
8. CNc1cc(Nc2ccc(C(=O)N3CCC(N4C[C@@H]5C[C@H]4CO5)CC3)c3c2OCC3)nc2[nH]cc(C(F)(F)F)c12

Solution:
> 1000 nM
301 to 1000 nM
301 to 1000 nM
301 to 1000 nM
1600 nM
301 to 1000 nM
100 to 1000 nM
< 100 nM

For each of the items listed, what is its IC50?
1. COc1cc(S(C)(=O)=O)ccc1Nc1nc(NC2CCOCC2)c2c(C#N)c[nH]c2n1
2. Nc1cnc2ccc(-c3c[nH]c4ncc(C(=O)NCc5cccnc5)cc34)cc2c1
3. N#Cc1c[nH]c2nc(Nc3ccc(C(=O)N4CCOCC4)c4c3OCCO4)nc(NC3CCOCC3)c12
4. CS(=O)(=O)CCNc1cc(Nc2ccc(C(=O)N3CCOCC3)c3c2OCCO3)nc2[nH]ccc12
5. CNc1nc(Nc2ccc(P(C)(C)=O)cc2OC)nc2[nH]cc(C#N)c12
6. COc1cc(P(C)(C)=O)ccc1Nc1nc(NC(C)C)c2c(C#N)c[nH]c2n1

Solution:
1: 301 to 1000 nM; 2: < 10 nM; 3: 301 to 1000 nM; 4: 301 to 1000 nM; 5: 301 to 1000 nM; 6: 301 to 1000 nM

Problem: What reported IC50 corresponds to COc1cc(S(=O)(=O)N2CCOCC2)ccc1Nc1cc(NC2CC2)c2cc[nH]c2n1 on human GST-DYRK1A (Homo sapiens)?
Solution: 301 to 1000 nM
